Listed next: entries and their corresponding MIC.
- System: A. baumannii ATCC 19606
- experimental.protocol: CLSI broth dilution MIC determination
- Format: cell-based
- condition.info: Acinetobacter baumannii, ATCC19606; A. baumannii ATCC 19606 (MP-15); read-out: MIC
experimental.readout: MIC (mg/L)

molecule	scale.unit	censoring.qualifier	recorded.number
CC[C@H]1OC(=O)[C@H](C)C(=O)[C@H](C)[C@@H](O[C@@H]2OC(C)CC(N(C)C)C2O)[C@](C)(OC)C[C@@H](C)C(=O)C[C@H]2N(CCCCn3cc(-c4cccc(N)c4)nn3)C(=O)O[C@]12C (some centres unmarked)	mg/L	>	32
CC[C@H]1OC(=O)[C@@](C)(F)C(=O)[C@H](C)[C@@H](OC2OC(C)CC(N(C)C)C2O)[C@](C)(OC)C[C@@H](C)C(=O)[C@H](C)[C@H]2N(CCCCn3cc(-c4cccc(N)c4)nn3)C(=O)O[C@]12C (some centres unmarked) [Solithro, solithromycin, reference compound]	mg/L	=	8
CC[C@H]1OC(=O)[C@@H](C)C(=O)[C@H](C)[C@@H](O[C@@H]2OC(C)CC(N(C)C)C2O)[C@](C)(OC)C[C@@H](C)C(=O)[C@H](C)[C@H]2N(C/C=C/Cn3cc(-c4cccc(N)c4)nn3)C(=O)O[C@]12C (some centres unmarked)	mg/L	>	32
C=C1C(=O)[C@H](C)C[C@@](C)(OC)[C@H](O[C@@H]2OC(C)CC(N(C)C)C2O)[C@@H](C)C(=O)[C@@H](C)C(=O)O[C@H](CC)[C@@]2(C)OC(=O)N(CCCCn3cc(-c4cccc(N)c4)nn3)[C@H]12 (some centres unmarked)	mg/L	>	32
CC[C@H]1OC(=O)[C@H](C)[C@@H](O[C@H]2C[C@@](C)(OC)[C@@H](O)[C@H](C)O2)[C@H](C)[C@@H](O[C@@H]2O[C@H](C)C[C@H](N(C)C)[C@H]2O)[C@](C)(O)C[C@@H](C)CN(C)[C@H](C)[C@@H](O)[C@]1(C)O [Azithro, azithromycin, reference compound]	mg/L	=	16
CC[C@H]1OC(=O)[C@@](C)(F)C(=O)[C@H](C)[C@@H](O[C@@H]2OC(C)CC(N(C)C)C2O)[C@](C)(OC)C[C@@H](C)C(=O)[C@H](C)[C@H]2N(CC#CCn3cc(-c4ccnc(N)n4)nn3)C(=O)O[C@]12C (some centres unmarked)	mg/L	=	16
CC[C@H]1OC(=O)[C@@](C)(F)C(=O)[C@H](C)[C@@H](O[C@@H]2OC(C)CC(N(C)C)C2O)[C@](C)(OC)C[C@@H](C)C(=O)[C@H](C)[C@H]2N(CC#CCn3cc(-c4nccc(N)n4)nn3)C(=O)O[C@]12C (some centres unmarked)	mg/L	=	32
CC[C@H]1OC(=O)[C@H](C)C(=O)[C@H](C)[C@@H](O[C@@H]2OC(C)CC(N(C)C)C2O)[C@](C)(OC)C[C@@H](C)C(=O)[C@H](C)[C@H]2N(CC#CCn3cc(-c4cccnn4)nn3)C(=O)O[C@]12C (some centres unmarked)	mg/L	=	16

* * *

- Test system: P. aeruginosa ATCC 27853
- experimental.protocol: CLSI broth dilution MIC determination
- Assay type: cell-based
- condition.info: Pseudomonas aeruginosa, ATCC27853; P. aeruginosa ATCC 27853 (MP-3); read-out: MIC
Listed next: entries and their corresponding MIC.
experimental.readout: MIC

compound	assayed.target	result
C=C1C(=O)[C@H](C)C[C@@](C)(OC)[C@H](O[C@@H]2OC(C)CC(N(C)C)C2O)[C@@H](C)C(=O)[C@@H](C)C(=O)O[C@H](CC)[C@@]2(C)OC(=O)N(CCCCn3cc(-c4cccc(N)c4)nn3)[C@H]12 (some centres unmarked) [FSM-21828]	P. aeruginosa ATCC 27853	> 32 µg/mL
CC[C@H]1OC(=O)[C@H](C)[C@@H](O[C@H]2C[C@@](C)(OC)[C@@H](O)[C@H](C)O2)[C@H](C)[C@@H](O[C@@H]2O[C@H](C)C[C@H](N(C)C)[C@H]2O)[C@](C)(O)C[C@@H](C)CN(C)[C@H](C)[C@@H](O)[C@]1(C)O [Azithro, azithromycin, reference compound]	P. aeruginosa ATCC 27853	> 32 µg/mL
CC[C@H]1OC(=O)[C@H](C)C(=O)[C@H](C)[C@@H](O[C@@H]2OC(C)CC(N(C)C)C2O)[C@](C)(OC)C[C@@H](C)C(=O)[C@H](C)[C@H]2N(NCCCn3nc4ccccc4n3)C(=O)O[C@]12C (some centres unmarked) [FSM-140132]	P. aeruginosa ATCC 27853	> 64 µg/mL
CC[C@H]1OC(=O)[C@@](C)(F)C(=O)[C@H](C)[C@@H](O[C@@H]2OC(C)CC(N(C)C)C2O)[C@](C)(OC)C[C@@H](C)C(=O)[C@H](C)[C@H]2N(CC#CCn3cc(-c4cc(OC)ccn4)nn3)C(=O)O[C@]12C (some centres unmarked) [FSM-100576]	P. aeruginosa ATCC 27853	> 32 µg/mL
CC[C@H]1OC(=O)[C@@](C)(F)C(=O)[C@H](C)[C@@H](O[C@@H]2OC(C)CC(N(C)C)C2O)[C@](C)(OC)C[C@@H](C)C(=O)[C@H](C)[C@H]2N(CC#CCn3cc(-c4cccc(F)n4)nn3)C(=O)O[C@]12C (some centres unmarked) [FSM-100627]	P. aeruginosa ATCC 27853	64 µg/mL

* * *

- Tested on: E. faecalis Vancomycin-resistant
- experimental.protocol: CLSI broth dilution MIC determination
- Type: cell-based
- condition.info: Enterococcus faecalis, E. faecalis Vancomycin-resistant (UNT-039); read-out: MIC
Listed next: entries and their corresponding MIC.

molecule	assayed.target	censoring.qualifier	MIC, µg/mL
CC[C@H]1OC(=O)[C@@](C)(F)C(=O)[C@H](C)[C@@H](O[C@@H]2OC(C)CC(N(C)C)C2O)[C@](C)(OC)C[C@@H](C)C(=O)C[C@H]2N(CCCCn3cc(-c4cccc(N)c4)nn3)C(=O)O[C@]12C (stereo partly drawn) [FSM-21598]	E. faecalis Vancomycin-resistant	>	32
CC[C@H]1OC(=O)[C@@](C)(F)C(=O)[C@H](C)[C@@H](O[C@@H]2OC(C)CC(N(C)C)C2O)[C@](C)(OC)C[C@@H](C)C(=O)[C@H](C)[C@H]2N(CC#CCn3cc(-c4cccc(N)c4)nn3)C(=O)O[C@]12C (stereo partly drawn) [FSM-100426]	E. faecalis Vancomycin-resistant	=	8
CC[C@H]1OC(=O)[C@H](C)[C@@H](O[C@H]2C[C@@](C)(OC)[C@@H](O)[C@H](C)O2)[C@H](C)[C@@H](O[C@@H]2O[C@H](C)C[C@H](N(C)C)[C@H]2O)[C@](C)(O)C[C@@H](C)CN(C)[C@H](C)[C@@H](O)[C@]1(C)O [Azithro, azithromycin, reference compound]	E. faecalis Vancomycin-resistant	>	32
CC[C@H]1OC(=O)[C@@](C)(F)C(=O)[C@H](C)[C@@H](O[C@@H]2OC(C)CC(N(C)C)C2O)[C@](C)(OC)C[C@@H](C)C(=O)[C@H](C)[C@H]2N(CC#CCn3cc(-c4cc(F)ccn4)nn3)C(=O)O[C@]12C (stereo partly drawn) [FSM-100563]	E. faecalis Vancomycin-resistant	=	2
C=C1C(=O)[C@H](C)C[C@@](C)(OC)[C@H](O[C@@H]2OC(C)CC(N(C)C)C2O)[C@@H](C)C(=O)[C@@H](C)C(=O)O[C@H](CC)[C@@]2(C)OC(=O)N(CCCCn3cc(-c4cccc(N)c4)nn3)[C@H]12 (stereo partly drawn) [FSM-21828]	E. faecalis Vancomycin-resistant	>	32
CC[C@H]1OC(=O)[C@H](C)C(=O)[C@H](C)[C@@H](O[C@@H]2OC(C)CC(N(C)C)C2O)[C@](C)(OC)C[C@@H](C)C(=O)[C@H](C)[C@H]2N(CC#CCn3cc(-c4cc(F)ccn4)nn3)C(=O)O[C@]12C (stereo partly drawn) [FSM-100566]	E. faecalis Vancomycin-resistant	=	8

* * *

Listed next: entries and their corresponding MIC.
- System: A. baumannii IMP-4
- experimental.protocol: CLSI broth dilution MIC determination
- Type: cell-based
- condition.info: Gram-negative
experimental.readout: MIC

compound	result
CC[C@H]1OC(=O)[C@H](C)C(=O)[C@H](C)[C@@H](O[C@@H]2OC(C)CC(N(C)C)C2O)[C@](C)(OC)C[C@@H](C)C(=O)[C@H](C)[C@H]2N(CC3CC3Cn3cc(-c4cccc(N)c4)nn3)C(=O)O[C@]12C (single isomer, unassigned) [FSM-100428]	> 32 µg/mL
CC[C@H]1OC(=O)[C@H](C)C(=O)[C@H](C)[C@@H](O[C@@H]2OC(C)CC(N(C)C)C2O)[C@](C)(OC)C[C@@H](C)C(=O)[C@H](C)[C@H]2N(C/C=C\Cn3cc(-c4cccc(N)c4)nn3)C(=O)O[C@]12C (stereo partly drawn)	> 32 µg/mL
CC[C@H]1OC(=O)[C@H](C)C(=O)[C@H](C)[C@@H](O[C@@H]2OC(C)CC(N(C)C)C2O)[C@](C)(OC)C[C@@H](C)C(=O)[C@H](C)[C@H]2N(C/C=C/Cn3cnc(-c4ccccn4)c3)C(=O)O[C@]12C (stereo partly drawn)	> 32 µg/mL
CC[C@H]1OC(=O)[C@@](C)(F)C(=O)[C@H](C)[C@@H](O[C@@H]2OC(C)CC(N(C)C)C2O)[C@](C)(OC)C[C@@H](C)C(=O)[C@H](C)[C@H]2N(C/C=C/Cn3nnnc3-c3ccccn3)C(=O)O[C@]12C (stereo partly drawn)	> 32 µg/mL
CC[C@H]1OC(=O)[C@@](C)(F)C(=O)[C@H](C)[C@@H](OC2OC(C)CC(N(C)C)C2O)[C@](C)(OC)C[C@@H](C)C(=O)[C@H](C)[C@H]2N(CCCCn3cc(-c4cccc(N)c4)nn3)C(=O)O[C@]12C (stereo partly drawn) [Solithro, solithromycin, reference compound]	> 32 µg/mL
CC[C@H]1OC(=O)[C@@](C)(F)C(=O)[C@H](C)[C@@H](O[C@@H]2OC(C)CC(N(C)C)C2O)[C@](C)(OC)C[C@@H](C)C(=O)[C@H](C)[C@H]2N(C/C=C\Cn3cc(-c4cccc(N)c4)nn3)C(=O)O[C@]12C (stereo partly drawn)	> 32 µg/mL
